Data credit: ChEMBL document CHEMBL1130252

tested.system: 5-hydroxytryptamine receptor 1B (Homo sapiens)
Sequence (P28222 whole entry): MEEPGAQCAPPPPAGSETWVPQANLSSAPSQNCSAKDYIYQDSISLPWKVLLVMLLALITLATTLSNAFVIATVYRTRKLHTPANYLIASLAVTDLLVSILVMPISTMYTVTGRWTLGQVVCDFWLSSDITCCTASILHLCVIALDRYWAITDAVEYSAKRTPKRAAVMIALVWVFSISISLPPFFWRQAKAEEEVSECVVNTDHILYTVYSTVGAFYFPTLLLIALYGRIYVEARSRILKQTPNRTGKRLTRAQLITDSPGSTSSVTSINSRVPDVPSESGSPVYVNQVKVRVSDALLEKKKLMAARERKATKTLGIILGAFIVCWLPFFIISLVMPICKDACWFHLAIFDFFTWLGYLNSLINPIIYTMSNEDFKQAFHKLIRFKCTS
assay.summary: Receptor binding affinity for cloned human 5-hydroxytryptamine 1B receptor in Cos-7 cells
Consider the following compounds; for each one, report its pKi.
// pKi: -log10(molar conc.)

Please fill in: pKi reported for Cc1ccccc1CN1CCN(C(=O)COc2ccc3cccc(N4CCN(C)CC4)c3c2)CC1 = 9.70

Entry CN1CCN(c2cccc3ccc(OCC(=O)N4CCN(c5cccc6c5OCCO6)CC4)cc23)CC1 , pKi reported as 9.37

Lab note: Cc1ccccc1N1CCN(C(=O)COc2ccc3cccc(N4CCN(C)CC4)c3c2)CC1 gave pKi of 9.52

Entry CN1CCN(c2cccc3ccc(OCC(=O)N4CCN(c5ccccc5C#N)CC4)cc23)CC1 ; pKi = 9.42

Lab note: COc1cccc(N2CCN(C(=O)COc3ccc4cccc(N5CCN(C)CC5)c4c3)CC2)c1OC gave pKi of 9.36

Value of pKi reported for the compound COc1ccc2ccc(N3CCNCC3)cc2c1 is 8.70

Query Cc1cc(C)c(N2CCN(C(=O)COc3ccc4cccc(N5CCN(C)CC5)c4c3)CC2)c(C)c1 yields pKi of 8.85

# pKi (compound: c1ccc2c(N3CCNCC3)cccc2c1 ) is 8.00

Item: CN1CCN(c2cccc3ccc(OCC(=O)N4CCN(c5cccc6ccccc56)CC4)cc23)CC1 | pKi: 9.37
